Data origin: PubChem BioAssay AID1014

Entries and their measured inhibition of percent positive cells follow.
assay: blockers of bacterial quorum-sensing reporter fluorescence – flow cytometry, SAR analogs, SAR follow-up (AID 1014); settings: at 20 µM, stronger effect = higher value; measured here: percent reporter-positive cells;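 further: Staphylococcus aureus RN6390 with RNAIII-GFP reporter stimulated by AIP; bacteria incubated with compound for 3 hours at 37 °C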
Respond with a number, then the unit of measure.

See these solved cases before continuing.
COc1ccc(Nc2nc3c(S(=O)(=O)c4ccc(C(C)C)cc4)nnn3c3ccccc23)cc1 = 0.3%
N#Cc1c(NC(=O)CN2C(=O)c3ccccc3C2=O)oc(-c2ccccc2)c1-c1ccccc1 = 0.2%
O=C(O)c1cc(Nc2ccccc2C(=O)O)nc(Nc2ccccc2C(=O)O)n1 = -0.3%
CC(C)(C)c1ccc(S(=O)(=O)c2nnn3c2nc(Nc2ccccc2)c2ccccc23)cc1 = -0.9%

Hello, please tell me recorded inhibition of percent positive cells for this one: CCc1ccc(S(=O)(=O)c2nnn3c2nc(Nc2ccc(OC)cc2)c2sccc23)cc1 -0.5%

In one line, give reported inhibition of percent positive cells of the entry O=C(CN1CC(=O)Oc2ccccc21)Nc1ccc2c(c1)OCO2 . -0.2%

Please indicate inhibition of percent positive cells recorded for CCc1ccc(Nc2nc3c(S(=O)(=O)c4ccc(Br)cc4)nnn3c3ccccc23)cc1 0%

Look up and report measured inhibition of percent positive cells for this entry: O=C(NCC(c1cccnc1)N1CCN(c2ccccc2F)CC1)C1CCCCC1 (stereo not drawn) -0.1%

Answer with the recorded inhibition of percent positive cells of CC(NC(=O)c1cccc(F)c1)C(c1cccs1)N1CCN(c2ccccc2F)CC1 (stereo not drawn) only. 0.2%

Report measured inhibition of percent positive cells; entry is CC(C)c1ccc(NC(=O)C(c2ccc3c(c2)OCO3)N2CCCCC2)cc1 (stereo not drawn) -0.7%

Report inhibition of percent positive cells for CCOC(=O)c1c(-c2ccc(OC)cc2)oc2ccc(O)cc12 0.1%
